- Measurement Protocol: recombinant UMI read abundance after kanamycin selection (control-corrected) (log10(CPM+1)); higher = more efficient recombination; extreme values may be limits of the assay; sequences stand for … in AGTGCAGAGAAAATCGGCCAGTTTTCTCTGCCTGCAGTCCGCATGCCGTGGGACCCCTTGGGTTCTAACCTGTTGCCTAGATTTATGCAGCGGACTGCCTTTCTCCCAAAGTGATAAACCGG…AGGTTGGTTTCACT; site = the 11-nt donor;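 note: IS621 bridge recombinase in Escherichia coli cells against a fixed T5 target plasmid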

Sequence Data | recombinant UMI read abundance (log10)
CGCTACACATGGACCGGTTTTCCCGGTAATCCGTATTTGCT (site CGCTACACTAG) | 2.9
GAGGGGCCATGGACCGGTTTTCCCGGTAATCCGTATTTGGC (site GAGGGGCCTGC) | 0
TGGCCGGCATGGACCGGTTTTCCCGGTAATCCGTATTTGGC (site TGGCCTGCTGC) | 0
CGTAATCCATGGACCGGTTTTCCCGGTAATCCGTATTTGTC (site CGTAATCCTGA) | 1.47
TTTGCGGCATGGACCGGTTTTCCCGGTAATCCGTATTTGTT (site TTTGCGGCTAG) | 0.0139
TCAAAGACATGGACCGGTTTTCCCGGTAATCCGTATTTGCG (site TCAGAGACTCG) | 0.87
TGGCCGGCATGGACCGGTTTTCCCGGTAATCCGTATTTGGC (site TGGCCGCCTGC) | 0
CCATCATCATGGACCGGTTTTCCCGGTAATCCGTATTTGCA (site CCATCATCTTG) | 0
CTCGGCGCATGGACCGGTTTTCCCGGTAATCCGTATTTGCC (site CTCGGCGCTGG) | 2.12

Reference source for all entries: the supplement of paper PMC11208160
